- Test system: Moraxella catarrhalis
- Protocol: MIC against Gram-negative bacteria: Moraxella catarrhalis
- Type: cell-based
- Measurement Conditions: 96-well plate, 5×10^5 CFU/mL, 37° C., 10 h
- Method: 1. Gram-negative bacteria, such as E. coli BL21, Pseudomonas aeruginosa, Klebsiella pneumonia, Enterobacter cloacae, Aeromonas hydrophila, Citrobacter diversus, Moraxella catarrhalis, Proteus mirabilis, Proteus vulgaris, Serratia marcescens, etc were streaked on solid LB medium and cultured respectively. Then, typical clones were picked, inoculated into common liquid LB medium respectively, and cultured at 37° C. with shaking at 185 rpm until the McFarland specific turbidity was 0.5. […]
Readout Name: MIC M. catarrhalis

Query string: Missing value: MIC M. catarrhalis, Moraxella catarrhalis, entry PRT698 (DVDECARSPPPCTYGRCENTEGSFQCVCPMGFQPNTAGSECE; listed as Homo sapiens) . Fill in?
Result string: 50 µg/mL

Query string: Try the substance PRT655 (DVDECATTDPCVGGHCVNTEGSFNCLCETGFQPSPESGECV; listed as Homo sapiens)
Result string: 50 µg/mL

Query string: Please give the result for PRT600 (CDCNPLGSLPFLTCDVDTGQCLCLSYVTGAHCEECTVGYWGLGNHLHGCSP; listed as Homo sapiens) too.
Result string: 50 µg/mL

Query string: Another substance to check: PRT624 (CRCSPLGAASAQCHENGTCVCRPGFEGYKCDRCHDNFFLTADGTHCQQC; listed as Homo sapiens)
Result string: 12.5 µg/mL

Query string: Okay, and PRT735 (GEENCNVNNGGCAQKCQMVRGAVQCTCHTGYRLTEDGHTCQ; listed as Homo sapiens) ?
Result string: 25 µg/mL

Query string: Then this substance: PRT725 (VPNLCKQICSHLCLLRPGGYSCACPQGSSFIEGSTTECD; listed as Homo sapiens)
Result string: 25 µg/mL

Query string: Thanks! And PRT617 (CNCNSKGSLSARCDNSGRCSCKPGVTGARCDRCLPGFHMLTDAGCTQ; listed as Homo sapiens) ?
Result string: 12.5 µg/mL

Query string: Another substance to check: PRT648 (DIDECLNPSTCPDEQCVNSPGSYQCVPCTEGFRGWNGQCL; listed as Homo sapiens)
Result string: 50 µg/mL

Query string: Input PRT665 (GIDRCAAGATNVCGPGTCVNLPDGYRCVCSPGYQLHPSQAYCT; listed as Homo sapiens)
Result string: 12.5 µg/mL

Query string: Then PRT672 (DIDECMLFGSEICKEGKCVNTQPGYECYCKQGFYYDGNLLECV; listed as Homo sapiens) ?
Result string: 12.5 µg/mL

Query string: Next substance: PRT596 (CDCDPRTSQSSHCDQLTGQCPCKLGYGGKRCSECQENYYGDPPGRCIP; listed as Homo sapiens)
Result string: 25 µg/mL

Query string: Moving on to PRT705 (LDDSCKLTCENGGRCILNEKGDLRCHCWPSYSGE; listed as Homo sapiens)
Result string: 25 µg/mL

Query string: Another substance: PRT718 (MTLCSALNCQYQCHETPYGGACFCPPGYIINHNDSRTCV; listed as Homo sapiens)
Result string: 12.5 µg/mL

Query string: Again, but for PRT658 (DVNECELMLAVCGAALCENVEGSFLCLCASDLEEYDAQEGHCR; listed as Homo sapiens)
Result string: 12.5 µg/mL

====

For each record, write down the corresponding MIC C. diversus.
- Tested on: Citrobacter diversus
- Protocol: MIC against Gram-negative bacteria: Citrobacter diversus
- Type: cell-based
- Measurement Conditions: 96-well plate, 5×10^5 CFU/mL, 37° C., 10 h
Supply the numeric figure in µg/mL, leaving out any unit text.

Query string: Requested read-out: MIC C. diversus. Entry: PRT730 (NGNSCSDFNGGCTHECVQEPFGAKCLCPLGFLLANDSKTCE; listed as Homo sapiens)
Result string: 12.5

Query string: Try the substance PRT714 (HINECLSKKVSGCSQDCQDLPVSYKCKCWPGFQLKDDGKTCV; listed as Homo sapiens)
Result string: 12.5

Query string: Continue with PRT726 (LPPPCRCMHGGNCYFDETDLPKCKCPSGYTGKYCE; listed as Homo sapiens)
Result string: 50

Query string: // same read-out, input: PRT659 (DADECVIFGPGLCPNGRCLNTVPGYVCLCNPGFHYDASHKKCE; listed as Homo sapiens)
Result string: 25

Query string: Entry PRT725 (VPNLCKQICSHLCLLRPGGYSCACPQGSSFIEGSTTECD; listed as Homo sapiens) please
Result string: 50

Query string: Then what about the substance PRT717 (DLNECLVFGTCSHQCINVEGSYKCVCDQNFQERNNTCI; listed as Homo sapiens) ?
Result string: 25

Query string: Please answer likewise for PRT693 (SSGMCQRNPQVCGPGRCISRPSGYTCACDSGFRLSPQGTRCI; listed as Homo sapiens)
Result string: 50

Query string: What do you get for PRT658 (DVNECELMLAVCGAALCENVEGSFLCLCASDLEEYDAQEGHCR; listed as Homo sapiens) ?
Result string: 50

Query string: Note, next up: PRT684 (APVLCPLICHNGGVCVKPDRCLCPPDFAGKFCQ; listed as Homo sapiens)
Result string: 25

Query string: How about PRT685 (DVNECLEGDFCFPHGECLNTDGSFACTCAPGYRPGPRGASCL; listed as Homo sapiens) ?
Result string: 12.5

Query string: Similarly, PRT625 (CNCSGRSEECTFDRELFRSTGHGGRCHHCRDHTAGPHCERCQENFYHWDPRMPCQP; listed as Homo sapiens) ?
Result string: 12.5

Query string: And then PRT716 (TEYTCEDNVNPCGDDAYCNQIKTSVFCRCKPGFQRNMKNRQCE; listed as Homo sapiens) , what is it?
Result string: 25

Query string: Next record, please: PRT649 (DVDECLEPNVCANGDCSNLEGSYMCSCHKGYTRTPDHKHCR; listed as Homo sapiens)
Result string: 50

Query string: Consider next the substance PRT631 (CSCHPQGSVSEQMPCDPVTGQCSCLPHVTARDCSRCYPGFFDLQPGRGCRS; listed as Homo sapiens) in the same way.
Result string: 25

Query string: What do you get for PRT627 (CTCNPAGSLDTCDPRSGRCPCKENVEGNLCDRCRPGTFNLQPHNPAGCSS; listed as Homo sapiens) ?
Result string: 12.5

Query string: Same question, PRT735 (GEENCNVNNGGCAQKCQMVRGAVQCTCHTGYRLTEDGHTCQ; listed as Homo sapiens) this time
Result string: 50

Query string: Same lookup for PRT673 (DVDECLDESNCRNGVCENTRGGYRCACTPPAEYSPAQRQCL; listed as Homo sapiens) , please.
Result string: 25

Query string: Try this substance too: PRT624 (CRCSPLGAASAQCHENGTCVCRPGFEGYKCDRCHDNFFLTADGTHCQQC; listed as Homo sapiens)
Result string: 25

Query string: Same lookup for PRT732 (SVNPCAFSRCSHLCLLSSQGPHFYSCVCPSGWSLSPDLLNCL; listed as Homo sapiens) , please.
Result string: 25

Query string: Try the substance PRT617 (CNCNSKGSLSARCDNSGRCSCKPGVTGARCDRCLPGFHMLTDAGCTQ; listed as Homo sapiens)
Result string: 25

Query string: PRT728 (ATNPCKDNNGGCEQVCVLSHRTDNDGLGFRCKCTFGFQLDTDERHCI; listed as Homo sapiens) ?
Result string: 25

Query string: Next substance up: PRT660 (DHDECQDLACENGECVNTEGSFHCFCSPPLTLDLSQQRCM; listed as Homo sapiens)
Result string: 50

Query string: What about this substance? PRT709 (SCQLCDGYCYNGGTCQLDPETNVPVCLCSTNWSGTQCE; listed as Homo sapiens)
Result string: 12.5

Query string: Also need PRT668 (DINECRHPGTCPDGRCVNSPGSYTCLACEEGYRGQSGSCV; listed as Homo sapiens) , thanks.
Result string: 100

Query string: Proceed to PRT607 (CDCHPEGSLSLQCKDDGRCECREGFVGNRCDQCEENYFYNRSWPGCQE; listed as Homo sapiens)
Result string: 50

Query string: Input PRT661 (QAEECGILNGCENGRCVRVREGYTCDCFEGFQLDAAHMACV; listed as Homo sapiens)
Result string: 12.5

Query string: Lookup PRT637 (DIDECVNNTVCDSHGFCDNTAGSFRCLCYQGFQAPQDG; listed as Homo sapiens)
Result string: 50

Query string: // same read-out, input: PRT710 (DQDECAVYGTCSQTCRNTHGSYTCSCVEGYLMQPDNRSCK; listed as Homo sapiens)
Result string: 50

Query string: Here is the next substance: PRT620 (CPCHNGFSCSVMPETEEVVCNNCPPGVTGARCELCADGYFGDPFGEHGPVRPCQP; listed as Homo sapiens)
Result string: 12.5

Query string: Then what about the substance PRT599 (CECDPDGTISGGICVSHSDPALGSVAGQCLCKENVEGAKCDQCKPNHYGLSATDPLGCQP; listed as Homo sapiens) ?
Result string: 50
